Listing of recorded Kd by entry.
target: HTLV-1 myr(−)MA (Human T-cell leukemia virus type I, UniProt Q9QR99); assay: 1H-15N HSQC NMR titration; format: binding
REPORTED_METRIC: Kd (µM)

[
  {
    "COMPOUND": "O=P(O)(O)O[C@H]1[C@H](OP(=O)(O)O)[C@@H](OP(=O)(O)O)[C@H](OP(=O)(O)O)[C@@H](OP(=O)(O)O)[C@H]1OP(=O)(O)O [IP6, inositol hexakisphosphate]",
    "MEASUREMENT_TARGET": "HTLV-1 myr(−)MA (Human T-cell leukemia virus type I, UniProt Q9QR99)",
    "UNIT_ABBREV": "µM",
    "MEAS_VALUE": 23
  },
  {
    "COMPOUND": "CCCCCC(=O)OC[C@H](COP(=O)(O)O[C@@H]1[C@H](O)[C@H](O)[C@@H](OP(=O)(O)O)[C@H](OP(=O)(O)O)[C@H]1O)OC(=O)CCCCC [diC6-PI(4,5)P2]",
    "MEASUREMENT_TARGET": "HTLV-1 myr(−)MA (Human T-cell leukemia virus type I, UniProt Q9QR99)",
    "UNIT_ABBREV": "µM",
    "MEAS_VALUE": 195
  },
  {
    "COMPOUND": "O=P(O)(O)O[C@@H]1[C@H](O)[C@H](O)[C@@H](OP(=O)(O)O)[C@H](OP(=O)(O)O)[C@H]1O [IP3, inositol 1,4,5-trisphosphate]",
    "MEASUREMENT_TARGET": "HTLV-1 myr(−)MA (Human T-cell leukemia virus type I, UniProt Q9QR99)",
    "UNIT_ABBREV": "µM",
    "MEAS_VALUE": 338
  },
  {
    "COMPOUND": "CCCC(=O)OC[C@H](COP(=O)(O)O[C@@H]1[C@H](O)[C@H](O)[C@@H](OP(=O)(O)O)[C@H](OP(=O)(O)O)[C@H]1O)OC(=O)CCC [diC4-PI(4,5)P2]",
    "MEASUREMENT_TARGET": "HTLV-1 myr(−)MA (Human T-cell leukemia virus type I, UniProt Q9QR99)",
    "UNIT_ABBREV": "µM",
    "MEAS_VALUE": 306
  }
]

Values were extracted from paper PMC8453114.
